Assay System: human recombinant adrenergic α2B receptor (Homo sapiens)
Construct: expressed in transfected cells; host or cells: CHO-K1 cells
Sequence (P18089 1-450): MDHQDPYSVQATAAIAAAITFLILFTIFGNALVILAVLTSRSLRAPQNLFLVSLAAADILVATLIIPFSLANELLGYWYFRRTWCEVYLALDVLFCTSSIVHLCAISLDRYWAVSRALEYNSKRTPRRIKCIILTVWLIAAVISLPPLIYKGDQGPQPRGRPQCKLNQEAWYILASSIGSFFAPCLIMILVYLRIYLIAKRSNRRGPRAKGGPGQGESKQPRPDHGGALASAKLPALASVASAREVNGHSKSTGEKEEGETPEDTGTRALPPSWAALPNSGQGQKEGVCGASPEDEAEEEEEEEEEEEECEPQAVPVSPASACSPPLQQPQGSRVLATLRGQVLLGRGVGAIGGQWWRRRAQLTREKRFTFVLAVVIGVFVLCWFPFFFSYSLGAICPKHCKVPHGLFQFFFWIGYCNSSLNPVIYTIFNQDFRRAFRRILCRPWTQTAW
Protocol: Adrenergic alpha2B radioligand binding ([3H]Rauwolscine)
Condition: compound at 1 μM; read-out: Adrenergic (1 μM) α2B, percent inhibition of specific binding
Parameter inhibition at 1 µM: see the listing below.
Report only the number, with the unit % understood.

Compound	Readout Units	inhibition at 1 µM
COc1ccc(C(O)Cn2c3c(c4cc(C)ccc42)CCN(C)CC3)cc1F (centres unmarked)	%	100
Cc1ccc2c(c1)c1c(n2CC(=O)NC2CCCCC2)CCN(C)CC1	%	-7
CN1CCc2c(n(CC(C)(O)c3ccc(Cl)cc3)c3ccc(Cl)cc23)CC1 (centres unmarked)	%	103

Prompt line: Value wanted: inhibition at 1 µM (human recombinant adrenergic α2B receptor (Homo sapiens)) of entry Cc1ccc(C(O)Cn2c3c(c4cc(Cl)ccc42)CCN(C)CC3)cc1 (centres unmarked)
Response line: 104

Prompt line: Same thing, different compound: COc1ccc(C(O)Cn2c3c(c4cc(Cl)ccc42)CCN(C)CC3)cc1F (centres unmarked)
Response line: 99

###

Assay System: human recombinant serotonin (5-Hydroxytryptamine) 5-HT6 receptor (Homo sapiens, UniProt P50406)
Construct: expressed in transfected cells; host or cells: human HeLa cells
Sequence (P50406 whole entry): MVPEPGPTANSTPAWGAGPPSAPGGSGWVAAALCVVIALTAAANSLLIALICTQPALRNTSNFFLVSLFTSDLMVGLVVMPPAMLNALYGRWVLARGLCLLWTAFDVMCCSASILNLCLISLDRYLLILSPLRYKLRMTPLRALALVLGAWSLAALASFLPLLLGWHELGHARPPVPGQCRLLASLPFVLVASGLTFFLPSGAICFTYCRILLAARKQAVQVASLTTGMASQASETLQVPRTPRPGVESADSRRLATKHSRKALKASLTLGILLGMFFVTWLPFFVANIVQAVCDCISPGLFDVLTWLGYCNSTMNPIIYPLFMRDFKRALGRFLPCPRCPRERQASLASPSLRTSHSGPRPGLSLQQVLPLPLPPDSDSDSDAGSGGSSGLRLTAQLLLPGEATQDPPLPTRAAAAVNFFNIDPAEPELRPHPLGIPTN
Protocol: Serotonin 5-HT6 radioligand binding ([3H]LSD)
Condition: compound at 1 μM; read-out: Serotonin (1 μM) 5-HT6, percent inhibition of specific binding
Measurement Name: inhibition at 1 µM
State the result as a value with its unit after it.

# annotated cases, reported inhibition at 1 µM shown
Compound	Data Value
CN1CCc2c(n(CC(O)c3ccncc3)c3ccc(Cl)cc23)CC1 (centres unmarked)	73%
C/C(=C/n1c2c(c3cc(C)ccc31)CCN(C)CC2)c1ccccc1F	102%
CN1CCc2c(n(/C=C/c3ccccc3)c3ccc(Cl)cc23)CC1	104%
CN1CCc2c(n(/C=C/c3ccccc3F)c3ccc(Cl)cc23)CC1	103%
Cc1ccc2c(c1)c1c(n2CC(C)(O)c2ccc(Cl)cc2)CCN(C)CC1 (centres unmarked)	82%
COc1ccc(/C(C)=C/n2c3c(c4cc(C)ccc42)CCN(C)CC3)cc1	96%
Cc1ccc2c(c1)c1c(n2CC(=O)N2CCNCC2)CCN(C)CC1	-4%
CN1CCc2c(n(C#Cc3ccc(F)cc3)c3ccc(Cl)cc23)CC1	97%

Prompt line: Field request: inhibition at 1 µM | item: `C/C(=C/n1c2c(c3cc(C)ccc31)CCN(C)CC2)c1cccc(F)c1`
Response line: 99%

Prompt line: One more compound: Cc1ccc2c(c1)c1c(n2CC(O)c2ccc(Cl)cc2)CCN(C)CC1 (centres unmarked)
Response line: 80%

Prompt line: Input `C/C(=C/n1c2c(c3cc(Cl)ccc31)CCN(C)CC2)c1ccccc1Cl`
Response line: 103%
